Target: T1, human CD73 (huCD73) protein, antigen of the Biacore assay (human, UniProt P21589 27-547, limits assumed)
T1 construct: also called human CD73 antigen
T1 sequence (looked up): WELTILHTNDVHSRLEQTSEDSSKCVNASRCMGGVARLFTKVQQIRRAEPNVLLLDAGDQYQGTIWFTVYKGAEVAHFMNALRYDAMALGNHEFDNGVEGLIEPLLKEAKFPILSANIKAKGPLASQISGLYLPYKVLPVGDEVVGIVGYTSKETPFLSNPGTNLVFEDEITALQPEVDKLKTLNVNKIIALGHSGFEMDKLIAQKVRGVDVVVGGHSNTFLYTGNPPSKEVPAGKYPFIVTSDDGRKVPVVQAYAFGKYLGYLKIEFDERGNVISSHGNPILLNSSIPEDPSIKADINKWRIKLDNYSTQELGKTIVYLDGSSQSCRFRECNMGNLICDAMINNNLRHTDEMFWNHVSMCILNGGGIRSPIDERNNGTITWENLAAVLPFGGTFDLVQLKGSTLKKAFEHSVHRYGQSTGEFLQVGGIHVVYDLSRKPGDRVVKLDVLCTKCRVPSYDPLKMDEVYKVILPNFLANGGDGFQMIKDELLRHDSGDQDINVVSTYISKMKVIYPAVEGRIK
Assay: SPR Biacore T200; antibody captured on Protein A chip, CD73 in flow; 1:1 Langmuir
experimental.endpoint: pKd
Bear in mind: pKd is minus log10 of a mol/L concentration; give just that figure.

Item Hab127.31f (antibody, V domains shown, VL3 + VH1f, HCDR2 hot-spot variant; full-length antibody) VH: EVQLVQSGAEVKKPGASVKVSCKASGYTFTAYFMNWVRQAPGQGLEWMGRIYHNHGDTFYSQKFKGRVTMTVDKSTSTVYMELSSLRSEDTAVYYCATSYVGDWGQGTTVTVSS VL: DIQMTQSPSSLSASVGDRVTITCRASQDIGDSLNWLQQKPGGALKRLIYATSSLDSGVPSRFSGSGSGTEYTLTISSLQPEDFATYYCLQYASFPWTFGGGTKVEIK has what recorded pKd? 9.71

Try this binder next: Hab127.42 (antibody, V domains shown, VL4 + VH2; recombined with human heavy and light constant regions) VH: EVQLVQSGAEVKKPGASVKVSCKASGYTFTAYFMNWVMQAPGQGLEWMGRIYHNNGDTFYSQKFKGRVTMTVDKSTSTVYMELSSLRSEDTAVYYCATSYVGDWGQGTTVTVSS VL: DIQMTQSPSSLSASVGDRVTITCRASQDIGDSLNWLQQKPGGALKRLIYATSSLDSGVPSRFSGSGSGSDYTLTISSLQPEDFATYYCLQYASFPWTFGGGTKVEIK 9.78

Try this binder next: Hab127.31d (antibody, human IgG1, kappa, V domains shown, also called humanized antibody of mab127) VH: EVQLVQSGAEVKKPGASVKVSCKASGYTFTAYFMNWVRQAPGQGLEWMGRIYHNKGDTFYSQKFKGRVTMTVDKSTSTVYMELSSLRSEDTAVYYCATSYVGDWGQGTTVTVSS VL: DIQMTQSPSSLSASVGDRVTITCRASQDIGDSLNWLQQKPGGALKRLIYATSSLDSGVPSRFSGSGSGTEYTLTISSLQPEDFATYYCLQYASFPWTFGGGTKVEIKR 9.59
